# test-target: T1, sEGFR-MMB (dimeric sEGFR mimetibody) (human)
# T1 construct: Disulfide-linked homodimer: QIQ, sEGFR, flexible linker, J segment, human IgG1 hinge, CH2, CH3; also called sEGFR-Fc; dimeric EGFR
# T1 sequence (chain, as listed by the source limits assumed): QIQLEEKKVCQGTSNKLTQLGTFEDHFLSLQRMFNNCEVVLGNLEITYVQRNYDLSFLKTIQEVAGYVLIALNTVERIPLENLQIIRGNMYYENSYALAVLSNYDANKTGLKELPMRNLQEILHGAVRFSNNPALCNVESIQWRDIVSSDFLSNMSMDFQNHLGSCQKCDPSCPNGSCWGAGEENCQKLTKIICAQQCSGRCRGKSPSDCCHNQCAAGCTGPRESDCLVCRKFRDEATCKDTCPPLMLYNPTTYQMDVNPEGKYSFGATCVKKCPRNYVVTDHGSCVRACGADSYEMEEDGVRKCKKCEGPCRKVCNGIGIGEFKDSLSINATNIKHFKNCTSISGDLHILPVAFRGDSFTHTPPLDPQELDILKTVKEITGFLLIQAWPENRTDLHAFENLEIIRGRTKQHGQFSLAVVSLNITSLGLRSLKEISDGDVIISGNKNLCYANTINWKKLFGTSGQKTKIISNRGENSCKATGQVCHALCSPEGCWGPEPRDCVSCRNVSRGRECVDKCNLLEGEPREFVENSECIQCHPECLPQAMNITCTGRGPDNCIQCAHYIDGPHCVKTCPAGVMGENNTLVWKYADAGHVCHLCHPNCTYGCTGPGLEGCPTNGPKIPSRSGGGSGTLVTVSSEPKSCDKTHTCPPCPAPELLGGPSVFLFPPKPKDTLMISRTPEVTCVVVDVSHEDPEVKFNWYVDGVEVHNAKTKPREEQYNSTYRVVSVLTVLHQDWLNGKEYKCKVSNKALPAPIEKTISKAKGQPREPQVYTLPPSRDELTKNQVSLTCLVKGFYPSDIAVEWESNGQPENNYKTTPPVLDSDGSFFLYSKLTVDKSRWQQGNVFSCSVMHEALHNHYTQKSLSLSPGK
# experimental-details: phage ELISA on coated sEGFR-MMB, chemiluminescence (background typically <200 units)
observable: log10(ELISA) (log10 of the value in units)
Scale: decimal log of ELISA, ELISA in units.

Entry GGGLPDDSLPELICKVRGGGGSGGSGG (pIX phagemid display, library S15; also called PP175; not shown: M13 phage coat protein pIX (MSVL...)) [phage clone P175 (SEQ ID NO: 13)] ; log10(ELISA) = 3.83

Values from patent US20120213844A1
